Taken from patent US10045981B2.

- Assay Details: Rat Liver Microsomes stability
- Assay type: in vitro ADME
- Measurement Setup: first session (before /), read-out: Rat Liver Microsomes t½

Smiles Input | half-life, min
C=CC(=O)Nc1cc(CN2CCN(C)C(=O)C2)cc(-c2cnc3ccccc3n2)c1 | 50
C=CC(=O)Nc1cc(CC(=O)OC)cc(-c2cnc3ccccc3n2)c1 | 2
C=CC(=O)Nc1cc(CN2CCNC(=O)C2)cc(-c2cnc3ccccc3n2)c1 | 63
C=CC(=O)Nc1cc(NS(C)(=O)=O)cc(-c2cnc3ccccc3n2)c1 | 38

---

- Assay Details: Solubility in aqueous buffer
- Type: physicochemical
- Measurement Setup: aqueous buffer, pH 7.4, aqueous buffer, aqueous buffer, pH 7.4, Original; read-out: Solubility pH 7.4 (uM) Original
Catalogue of solubility values

Smiles Input | solubility
C=CC(=O)Nc1cc(CC(=O)OC)cc(-c2cnc3ccccc3n2)c1 | 9 µM
C=CC(=O)Nc1cc(NS(C)(=O)=O)cc(-c2cnc3ccccc3n2)c1 | 34 µM
C=CC(=O)Nc1cc(CN2CCNC(=O)C2)cc(-c2cnc3ccccc3n2)c1 | 88 µM
C=CC(=O)Nc1cc(CN2CCN(C)C(=O)C2)cc(-c2cnc3ccccc3n2)c1 | 85 µM

---

We begin with a simple list: items and their reported fraction unbound.
- Assay Details: Human Plasma protein binding
- Type: in vitro ADME
Observed Property: fraction unbound

Molecule | Recorded Number
C=CC(=O)Nc1cc(CN2CCNC(=O)C2)cc(-c2cnc3ccccc3n2)c1 [Compound 1b] | 0.317
C=CC(=O)Nc1cc(CC(=O)OC)cc(-c2cnc3ccccc3n2)c1 [Compound 2] | 0.123
C=CC(=O)Nc1cc(NS(C)(=O)=O)cc(-c2cnc3ccccc3n2)c1 [Compound 3] | 0.054
C=CC(=O)Nc1cc(CN2CCN(C)C(=O)C2)cc(-c2cnc3ccccc3n2)c1 [Compound 1a] | 0.223

---

Some molecules, each annotated with its measured half-life.
- Assay Details: Mouse Liver Microsomes stability
- Assay type: in vitro ADME
- Measurement Setup: second session (after /), read-out: Mouse Liver Microsomes t½
Observed Property: half-life (min)

Smiles Input | Observed Property | Recorded Number
C=CC(=O)Nc1cc(CC(=O)OC)cc(-c2cnc3ccccc3n2)c1 | half-life | 6
C=CC(=O)Nc1cc(CN2CCNC(=O)C2)cc(-c2cnc3ccccc3n2)c1 | half-life | 50
C=CC(=O)Nc1cc(CN2CCN(C)C(=O)C2)cc(-c2cnc3ccccc3n2)c1 | half-life | 15
C=CC(=O)Nc1cc(NS(C)(=O)=O)cc(-c2cnc3ccccc3n2)c1 | half-life | 84

---

Each item that follows carries a reported fraction unbound.
- Assay Details: Mouse Plasma protein binding
- Type: in vitro ADME
Observed Property: fraction unbound

Smiles Input | Recorded Number
C=CC(=O)Nc1cc(CN2CCN(C)C(=O)C2)cc(-c2cnc3ccccc3n2)c1 | 0.034
C=CC(=O)Nc1cc(CN2CCNC(=O)C2)cc(-c2cnc3ccccc3n2)c1 | 0.059
C=CC(=O)Nc1cc(NS(C)(=O)=O)cc(-c2cnc3ccccc3n2)c1 | 0.147

---

- Measured Target: hERG (Homo sapiens, UniProt Q12809)
- Sequence (Q12809 whole entry): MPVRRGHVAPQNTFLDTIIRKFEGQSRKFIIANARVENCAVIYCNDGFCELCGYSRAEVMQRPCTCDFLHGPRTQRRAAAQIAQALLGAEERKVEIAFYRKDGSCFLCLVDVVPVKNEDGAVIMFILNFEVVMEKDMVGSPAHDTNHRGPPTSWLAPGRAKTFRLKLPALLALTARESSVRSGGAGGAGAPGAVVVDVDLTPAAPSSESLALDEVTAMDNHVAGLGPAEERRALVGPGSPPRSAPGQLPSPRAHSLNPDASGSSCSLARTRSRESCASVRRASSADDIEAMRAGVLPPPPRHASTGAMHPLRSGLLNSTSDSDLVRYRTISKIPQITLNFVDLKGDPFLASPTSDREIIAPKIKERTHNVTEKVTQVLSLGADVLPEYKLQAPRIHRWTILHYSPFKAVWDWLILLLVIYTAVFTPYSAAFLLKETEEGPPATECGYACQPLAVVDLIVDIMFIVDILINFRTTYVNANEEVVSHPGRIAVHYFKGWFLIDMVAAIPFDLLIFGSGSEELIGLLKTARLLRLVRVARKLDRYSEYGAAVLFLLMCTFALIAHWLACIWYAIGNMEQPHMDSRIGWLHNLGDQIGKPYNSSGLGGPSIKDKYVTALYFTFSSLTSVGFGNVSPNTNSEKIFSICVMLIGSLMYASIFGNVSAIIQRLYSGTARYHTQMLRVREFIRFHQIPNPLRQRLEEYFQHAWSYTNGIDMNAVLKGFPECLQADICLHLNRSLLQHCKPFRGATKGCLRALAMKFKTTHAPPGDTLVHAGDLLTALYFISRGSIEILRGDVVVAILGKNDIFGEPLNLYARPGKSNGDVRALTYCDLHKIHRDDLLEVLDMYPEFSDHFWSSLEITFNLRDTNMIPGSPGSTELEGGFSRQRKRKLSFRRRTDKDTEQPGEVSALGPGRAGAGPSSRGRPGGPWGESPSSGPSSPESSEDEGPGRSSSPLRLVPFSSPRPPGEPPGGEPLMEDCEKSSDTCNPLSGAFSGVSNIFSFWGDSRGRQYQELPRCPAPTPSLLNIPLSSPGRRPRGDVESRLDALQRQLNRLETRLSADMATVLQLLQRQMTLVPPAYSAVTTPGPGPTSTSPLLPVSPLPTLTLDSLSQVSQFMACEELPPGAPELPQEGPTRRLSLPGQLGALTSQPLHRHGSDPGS
- Assay Details: hERG K+ channel current in HEK293 cells
pIC50: −log10 of the molar value.
Each item that follows carries a reported pIC50.
Observed Property: pIC50

Smiles Input | Measured Target | Observed Property | Result
C=CC(=O)Nc1cc(NS(C)(=O)=O)cc(-c2cnc3ccccc3n2)c1 | hERG (Homo sapiens, UniProt Q12809) | pIC50 | < 6.00
C=CC(=O)Nc1cc(CN2CCN(C)C(=O)C2)cc(-c2cnc3ccccc3n2)c1 | hERG (Homo sapiens, UniProt Q12809) | pIC50 | < 5.00
C=CC(=O)Nc1cc(CN2CCNC(=O)C2)cc(-c2cnc3ccccc3n2)c1 | hERG (Homo sapiens, UniProt Q12809) | pIC50 | < 5.00
C=CC(=O)Nc1cc(CC(=O)OC)cc(-c2cnc3ccccc3n2)c1 | hERG (Homo sapiens, UniProt Q12809) | pIC50 | < 5.00

---

- Measured Target: UniProtKB P08684
- Sequence (P08684 whole entry): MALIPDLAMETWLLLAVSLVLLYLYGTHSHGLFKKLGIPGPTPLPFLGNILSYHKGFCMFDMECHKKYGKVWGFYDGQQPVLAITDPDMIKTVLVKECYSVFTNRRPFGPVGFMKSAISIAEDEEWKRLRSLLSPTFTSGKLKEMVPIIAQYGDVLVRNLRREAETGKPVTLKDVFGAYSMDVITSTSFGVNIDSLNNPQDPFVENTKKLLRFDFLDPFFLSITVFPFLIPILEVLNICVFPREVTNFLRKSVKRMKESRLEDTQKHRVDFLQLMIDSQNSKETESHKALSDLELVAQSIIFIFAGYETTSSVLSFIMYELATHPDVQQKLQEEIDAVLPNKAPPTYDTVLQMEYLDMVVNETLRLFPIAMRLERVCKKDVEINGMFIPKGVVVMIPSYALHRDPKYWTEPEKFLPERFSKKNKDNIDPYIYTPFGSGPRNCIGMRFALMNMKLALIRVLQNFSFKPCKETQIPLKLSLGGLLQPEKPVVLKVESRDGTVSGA
- Assay Details: CYP3A4 inhibition testosterone LCMS
- Format: in vitro ADME
- Measurement Setup: second session (after /), read-out: CYP3A4 K50 [uM] testosterone LCMS
Entries and their IC50

Smiles Input | IC50
C=CC(=O)Nc1cc(CC(=O)OC)cc(-c2cnc3ccccc3n2)c1 | > 100 µM
C=CC(=O)Nc1cc(CN2CCN(C)C(=O)C2)cc(-c2cnc3ccccc3n2)c1 | > 100 µM
C=CC(=O)Nc1cc(CN2CCNC(=O)C2)cc(-c2cnc3ccccc3n2)c1 | > 100 µM
C=CC(=O)Nc1cc(NS(C)(=O)=O)cc(-c2cnc3ccccc3n2)c1 | 51 µM

---

- Measured Target: EGFR (T790M) (Homo sapiens, UniProt P00533, T790M)
- Sequence (P00533 25-1210 T790M): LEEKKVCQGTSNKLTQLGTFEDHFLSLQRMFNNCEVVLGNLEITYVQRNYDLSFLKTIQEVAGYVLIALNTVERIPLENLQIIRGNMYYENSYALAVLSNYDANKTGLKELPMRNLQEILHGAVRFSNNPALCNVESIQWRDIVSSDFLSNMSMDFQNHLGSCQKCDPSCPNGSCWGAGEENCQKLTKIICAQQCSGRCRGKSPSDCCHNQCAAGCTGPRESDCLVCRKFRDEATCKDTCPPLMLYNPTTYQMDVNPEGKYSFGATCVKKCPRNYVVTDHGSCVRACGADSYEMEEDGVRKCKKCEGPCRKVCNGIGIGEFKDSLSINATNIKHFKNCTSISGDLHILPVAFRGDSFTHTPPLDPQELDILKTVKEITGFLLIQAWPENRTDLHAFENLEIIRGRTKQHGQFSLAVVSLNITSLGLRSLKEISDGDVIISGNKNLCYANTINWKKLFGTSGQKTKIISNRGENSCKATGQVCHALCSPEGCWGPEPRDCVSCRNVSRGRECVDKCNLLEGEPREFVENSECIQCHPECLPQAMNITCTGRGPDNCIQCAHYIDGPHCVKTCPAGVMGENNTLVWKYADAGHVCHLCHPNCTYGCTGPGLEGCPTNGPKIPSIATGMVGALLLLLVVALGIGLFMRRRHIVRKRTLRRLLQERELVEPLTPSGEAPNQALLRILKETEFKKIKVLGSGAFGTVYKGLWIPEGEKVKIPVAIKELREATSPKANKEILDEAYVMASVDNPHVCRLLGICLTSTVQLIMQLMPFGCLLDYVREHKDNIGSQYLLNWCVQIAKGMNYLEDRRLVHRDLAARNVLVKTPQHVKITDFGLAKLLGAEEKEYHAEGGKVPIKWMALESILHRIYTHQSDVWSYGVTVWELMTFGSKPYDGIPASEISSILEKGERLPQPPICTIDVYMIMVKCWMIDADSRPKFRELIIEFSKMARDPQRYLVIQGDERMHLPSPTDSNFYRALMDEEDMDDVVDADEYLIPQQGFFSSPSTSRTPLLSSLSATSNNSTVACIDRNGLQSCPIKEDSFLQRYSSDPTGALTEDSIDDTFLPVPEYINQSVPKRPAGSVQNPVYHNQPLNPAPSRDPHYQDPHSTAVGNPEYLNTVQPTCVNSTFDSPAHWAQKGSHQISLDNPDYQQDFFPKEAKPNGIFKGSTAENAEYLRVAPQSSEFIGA
- Assay Details: Exemplary Kinase Panel Analysis
- Measurement Setup: 10 concentrations, 3-fold serial dilutions starting at 5 μM, duplicate
Observed Property: IC50

Smiles Input | Result
C=CC(=O)Nc1cc(CN2CCNC(=O)C2)cc(-c2cnc3ccccc3n2)c1 | 3.54 µM
C=CC(=O)Nc1cc(CN2CCN(C)C(=O)C2)cc(-c2cnc3ccccc3n2)c1 | 0.688 µM
C=CC(=O)Nc1cc(NS(C)(=O)=O)cc(-c2cnc3ccccc3n2)c1 | 2.24 µM
C=CC(=O)Nc1cc(CC(=O)OC)cc(-c2cnc3ccccc3n2)c1 | 3.31 µM

---

- Assay Details: Cytotoxicity Screening L929 Fibroblasts
- Type: cell-based
- Measurement Setup: mouse, read-out: 50% Maximal Effect Concentration (AC50)
- Excerpt: The cytotoxicity screening panel included cell count, nuclear size, DNA structure, cell membrane permeability, mitochondrial mass, mitochondrial membrane potential, and cytochrome C release.
Observed Property: AC50

Molecule | Observed Property | Result
C=CC(=O)Nc1cc(CN2CCN(C)C(=O)C2)cc(-c2cnc3ccccc3n2)c1 [Compound 1a] | AC50 | 20 µM
C=CC(=O)Nc1cc(NS(C)(=O)=O)cc(-c2cnc3ccccc3n2)c1 [Compound 3] | AC50 | 20 µM
C=CC(=O)Nc1cc(CN2CCNC(=O)C2)cc(-c2cnc3ccccc3n2)c1 [Compound 1b] | AC50 | 45 µM
C=CC(=O)Nc1cc(CC(=O)OC)cc(-c2cnc3ccccc3n2)c1 [Compound 2] | AC50 | 18 µM

---

- Measured Target: JAK3 (Homo sapiens)
- Assay Details: JAK3 biochemical IC50
- Measurement Setup: Table 3, first session (before /); read-out: JAK3 biochemical IC50

Smiles Input | Measured Target | IC50 / nM
C=CC(=O)Nc1cc(NS(C)(=O)=O)cc(-c2cnc3ccccc3n2)c1 | JAK3 (Homo sapiens) | 16
C=CC(=O)Nc1cc(CN2CCN(C)C(=O)C2)cc(-c2cnc3ccccc3n2)c1 | JAK3 (Homo sapiens) | 13
C=CC(=O)Nc1cc(CN2CCNC(=O)C2)cc(-c2cnc3ccccc3n2)c1 | JAK3 (Homo sapiens) | 18
C=CC(=O)Nc1cc(CC(=O)OC)cc(-c2cnc3ccccc3n2)c1 | JAK3 (Homo sapiens) | 15

---

The reader will find reported pIC50 values listed item by item below.
- Measured Target: JAK3 (Homo sapiens, UniProt P52333)
- Sequence (P52333 1-1124): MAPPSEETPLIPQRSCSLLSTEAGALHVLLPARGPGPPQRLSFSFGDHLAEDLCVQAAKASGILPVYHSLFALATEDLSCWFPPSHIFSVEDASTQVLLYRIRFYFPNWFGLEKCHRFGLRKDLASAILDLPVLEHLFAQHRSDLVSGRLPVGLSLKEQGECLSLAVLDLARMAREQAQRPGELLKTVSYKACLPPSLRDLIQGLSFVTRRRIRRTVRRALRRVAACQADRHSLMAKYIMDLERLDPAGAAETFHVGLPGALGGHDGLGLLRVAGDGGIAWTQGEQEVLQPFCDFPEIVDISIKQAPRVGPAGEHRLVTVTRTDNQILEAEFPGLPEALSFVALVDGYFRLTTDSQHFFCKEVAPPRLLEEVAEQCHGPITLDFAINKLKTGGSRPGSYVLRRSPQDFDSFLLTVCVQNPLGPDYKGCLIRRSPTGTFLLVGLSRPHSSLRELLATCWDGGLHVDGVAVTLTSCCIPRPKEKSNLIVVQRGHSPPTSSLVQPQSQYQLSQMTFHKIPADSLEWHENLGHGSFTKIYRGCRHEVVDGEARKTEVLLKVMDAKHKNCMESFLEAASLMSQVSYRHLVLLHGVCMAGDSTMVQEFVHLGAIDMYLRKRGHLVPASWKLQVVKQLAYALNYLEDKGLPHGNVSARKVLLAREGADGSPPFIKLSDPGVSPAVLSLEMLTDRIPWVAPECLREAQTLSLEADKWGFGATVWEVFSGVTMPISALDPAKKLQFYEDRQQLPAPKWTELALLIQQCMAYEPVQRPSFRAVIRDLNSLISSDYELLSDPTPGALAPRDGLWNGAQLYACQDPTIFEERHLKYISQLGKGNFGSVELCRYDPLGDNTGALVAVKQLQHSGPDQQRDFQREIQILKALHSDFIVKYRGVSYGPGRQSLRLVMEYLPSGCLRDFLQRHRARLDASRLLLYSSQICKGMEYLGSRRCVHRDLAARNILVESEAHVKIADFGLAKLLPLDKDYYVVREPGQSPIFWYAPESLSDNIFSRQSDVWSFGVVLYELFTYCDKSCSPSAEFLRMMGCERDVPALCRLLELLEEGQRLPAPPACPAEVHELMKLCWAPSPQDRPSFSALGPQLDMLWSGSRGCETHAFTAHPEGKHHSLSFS
- Assay Details: JAK3 biochemical IC50
- Measurement Setup: Table 3, second session (after /); read-out: JAK3 biochemical IC50
pIC50: −log10 of the molar value.

Compound | pIC50
C=CC(=O)Nc1cc(NS(C)(=O)=O)cc(-c2cnc3ccccc3n2)c1 [Compound 3] | 7.64
C=CC(=O)Nc1cc(CN2CCNC(=O)C2)cc(-c2cnc3ccccc3n2)c1 [Compound 1b] | 7.74
C=CC(=O)Nc1cc(CN2CCN(C)C(=O)C2)cc(-c2cnc3ccccc3n2)c1 [Compound 1a] | 8.00
C=CC(=O)Nc1cc(CC(=O)OC)cc(-c2cnc3ccccc3n2)c1 [Compound 2] | 8.15
